Each recorded value in this set is attributed to the supplement of paper PMC11208160.

assay: recombinant UMI read abundance after kanamycin selection (control-corrected) (log10(CPM+1)); higher = more efficient recombination; extreme values may be limits of the assay; sequences stand for … in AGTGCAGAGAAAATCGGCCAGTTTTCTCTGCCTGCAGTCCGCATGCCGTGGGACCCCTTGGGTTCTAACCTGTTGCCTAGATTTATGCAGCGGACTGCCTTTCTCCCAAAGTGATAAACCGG…AGGTTGGTTTCACT; site = the 11-nt donor;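 note: IS621 bridge recombinase in Escherichia coli cells against a fixed T5 target plasmid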
Reported recombinant UMI read abundance (log10) by item:
endpoint-label: recombinant UMI read abundance (log10)

ATAGTATCATGGACCGGTTTTCCCGGTAATCCGTATTTGAC (site GTAGTATCTGT): 2.49
AGAGTATCATGGACCGGTTTTCCCGGTAATCCGTATTTGTG (site AGAGTATCTCA): 2.98
TGTTAGACATGGACCGGTTTTCCCGGTAATCCGTATTTGAG (site GGTTAGACTCT): 0.0119
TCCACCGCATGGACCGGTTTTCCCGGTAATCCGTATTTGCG (site TCCACCGCTAG): 0.00776
ACAAGTGCATGGACCGGTTTTCCCGGTAATCCGTATTTGGT (site ACGAGTGCTAC): 1.09
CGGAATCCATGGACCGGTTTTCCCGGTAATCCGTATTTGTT (site CGGCACCCTAA): 0.0425
TAATGAGCATGGACCGGTTTTCCCGGTAATCCGTATTTGCG (site TAATGAGCTCA): 0.385
TCCACGCCATGGACCGGTTTTCCCGGTAATCCGTATTTGTA (site GCCACGCCTTA): 0.00791
CGATCTTCATGGACCGGTTTTCCCGGTAATCCGTATTTGCT (site CGATCATCTAG): 0
ATGCCGCCATGGACCGGTTTTCCCGGTAATCCGTATTTGGG (site ATGCCGCCTCC): 0.0227
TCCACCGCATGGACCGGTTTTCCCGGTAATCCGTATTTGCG (site TGCACCGCTCG): 0.0462
ACTACAACATGGACCGGTTTTCCCGGTAATCCGTATTTGAG (site ACTAGAACTCT): 0.216
AAGTATGCATGGACCGGTTTTCCCGGTAATCCGTATTTGGA (site AACTATGCTTC): 1.43
GTTGTTTCATGGACCGGTTTTCCCGGTAATCCGTATTTGGT (site GTTGTTCCTAC): 0.00733
AGTTGCTCATGGACCGGTTTTCCCGGTAATCCGTATTTGAA (site AGTTGCTCTTT): 0.47
TTAGAACCATGGACCGGTTTTCCCGGTAATCCGTATTTGCC (site TTAGAACCTGG): 0
CTTTACACATGGACCGGTTTTCCCGGTAATCCGTATTTGCT (site CTATACACTAG): 2.27
CAAGCCACATGGACCGGTTTTCCCGGTAATCCGTATTTGGG (site CAAGACACTCC): 0.0254
